The values you see were collected from patent US20240216413A1.

Tested on: Omicron
Experiment: microbe, parasite or virus in culture
Settings: Severe acute respiratory syndrome coronavirus 2, Caco-2, read-out: Anti-Omicron Activity (Caco-2) EC50, value in parentheses
pEC50: −log10 of the molar value.
assay_readout: pEC50

compound	assay_readout	recorded_number
O=c1nc(NO)ccn1[C@@H]1O[C@H](CO)[C@@H](O)[C@H]1O [NHC, N4-hydroxycytidine]	pEC50	4.88

---

Tested on: rDNA (rRNA gene, nuclear reference)
Test: Mitochondrial toxicity in HepG2 cells (MtDNA / rDNA)
Conditions: human, HepG2 cells

structure_as_smiles	CC50 at 7 days
O=c1ccn([C@@H]2S[C@H](CO)[C@@H](O)[C@H]2O)c(=O)[nH]1	> 100 µM
